Test system: Enterococcus sp.
assayComment: in vitro antibacterial evaluation, MIC by broth dilution
Format: cell-based
conditionNotes: Enterococcus faecalis (GC 4552); broth dilution, 18 hours at 35° C.
recordedEndpoint: MIC Enterococcus faecalis (GC 4552) (µg/mL)
# number only, unit µg/mL dropped from output

Exam item: Return reported MIC Enterococcus faecalis (GC 4552); argument: COc1cc(OC)cc(C2OCC3OC(OC4C(CO)OC(Oc5ccc(CC6NC(=O)C(C(C)c7ccccc7)NC(=O)CNC(=O)C(CO)NC(=O)C(C(O)C7CNC(=N)N7C7OC(CO)C(O)C(O)C7O)NC(=O)C(C(O)C7CNC(=N)N7)NC6=O)cc5)C(O)C4O)C(O)C(O)C3O2)c1 (centres unmarked)
Marked response: 8

Exam item: Return reported MIC Enterococcus faecalis (GC 4552); argument: CSc1ccc(C2OCC3OC(OC4C(CO)OC(Oc5ccc(CC6NC(=O)C(C(C)c7ccccc7)NC(=O)CNC(=O)C(CO)NC(=O)C(C(O)C7CNC(=N)N7C7OC(CO)C(O)C(O)C7O)NC(=O)C(C(O)C7CNC(=N)N7)NC6=O)cc5)C(O)C4O)C(O)C(O)C3O2)cc1 (centres unmarked)
Marked response: 2

Exam item: Return reported MIC Enterococcus faecalis (GC 4552); argument: CC(c1ccccc1)C1NC(=O)CNC(=O)C(CO)NC(=O)C(C(O)C2CN(Cc3ccc4ccccc4c3)C(=N)N2C2OC(CO)C(O)C(O)C2O)NC(=O)C(C(O)C2CNC(=N)N2)NC(=O)C(Cc2ccc(OC3OC(CO)C(OC4OC(CO)C(O)C(O)C4O)C(O)C3O)cc2)NC1=O (centres unmarked)
Marked response: 128

Exam item: Return reported MIC Enterococcus faecalis (GC 4552); argument: N=C1NCC(C(O)C2NC(=O)C(Cc3ccc(OC4OC(CO)C(OC5OC6COC7(OC6C6OC8(OC56)C5CC6CC(C5)CC8C6)C5CC6CC(C5)CC7C6)C(O)C4O)cc3)NC(=O)C(CC3CCCCC3)NC(=O)CNC(=O)C(CO)NC(=O)C(C(O)C3CNC(=N)N3C3OC(CO)C(O)C(O)C3O)NC2=O)N1 (centres unmarked) [Example 106b]
Marked response: 8

====

System: Staphylococcus sp.
assayComment: in vitro antibacterial evaluation, MIC by broth dilution
Assay type: cell-based
conditionNotes: broth dilution, 18 hours at 35° C.; strain GC 4546
Please respond with reported MIC Staphylococcus haemolyticus (GC 4546) for every item in the list.
# number only, unit µg/mL dropped from output

Exam item: Return reported MIC Staphylococcus haemolyticus (GC 4546); argument: CCOc1cc(C2OCC3OC(OC4C(CO)OC(Oc5ccc(CC6NC(=O)C(C(C)c7ccccc7)NC(=O)CNC(=O)C(CO)NC(=O)C(C(O)C7CNC(=N)N7C7OC(CO)C(O)C(O)C7O)NC(=O)C(C(O)C7CNC(=N)N7)NC6=O)cc5)C(O)C4O)C(O)C(O)C3O2)ccc1OC (stereo not shown)
Marked response: 8

Exam item: Return reported MIC Staphylococcus haemolyticus (GC 4546); argument: N=C1NCC(C(O)C2NC(=O)C(Cc3ccc(OC4OC(CO)C(OC5OC6COC7(OC6C6OC8(OC56)C5CC6CC(C5)CC8C6)C5CC6CC(C5)CC7C6)C(O)C4O)cc3)NC(=O)C(CC3CCCCC3)NC(=O)CNC(=O)C(CO)NC(=O)C(C(O)C3CNC(=N)N3C3OC(CO)C(O)C(O)C3O)NC2=O)N1 (stereo not shown) [Example 106b]
Marked response: 4

Exam item: Return reported MIC Staphylococcus haemolyticus (GC 4546); argument: CC(c1ccccc1)[C@@H]1NC(=O)CNC(=O)[C@H](CO)NC(=O)[C@H](C(O)C2CNC(=N)N2)NC(=O)[C@H](C(O)C2CNC(=N)N2)NC(=O)[C@H](Cc2ccc(O)cc2)NC1=O (stereo partly shown) [Example 280b]
Marked response: 32

====

assayComment: anatomic pathology (histopathology of heart and kidney) in mice
Assay type: in vivo
conditionNotes: CD-1 mice, 20 mg/kg intravenously daily for 9 days, necropsy day 10, microscopic histopathology
recordedEndpoint: Anatomical Pathology (Day 10), Kidney

CC(c1ccccc1)C1NC(=O)CNC(=O)C(CO)NC(=O)C(C(O)C2CN(Cc3ccc(C(C)(C)C)cc3)C(=N)N2C2OC(CO)C(O)C(O)C2O)NC(=O)C(C(O)C2CNC(=N)N2)NC(=O)C(Cc2ccc(OC3OC(CO)C(OC4OC(CO)C(O)C(O)C4O)C(O)C3O)cc2)NC1=O (stereo not shown) [Example 60]: 0
Cc1ccc(Oc2cccc(-c3nc4cc(CC5NC(=O)C(C(C)c6ccccc6)NC(=O)CNC(=O)C(CO)NC(=O)C(C(O)C6CNC(=N)N6C6OC(CO)C(O)C(O)C6O)NC(=O)C(C(O)C6CNC(=N)N6)NC5=O)ccc4o3)c2)cc1 (stereo not shown) [Example 28]: 0
CC(c1ccccc1)C1NC(=O)CNC(=O)C(CO)NC(=O)C(CC2CNC(=N)N2C2OC(CO)C(O)C(O)C2O)NC(=O)C(CC2CNC(=N)N2)NC(=O)C(Cc2ccc(OC3OC(CO)C(OC4OC5COC6(OC5C(O)C4O)C4CC5CC(C4)CC6C5)C(O)C3O)cc2)NC1=O (stereo not shown) [Example 219]: +++
CC(c1ccccc1)C1NC(=O)CNC(=O)C(CO)NC(=O)C(C(O)C2CN(Cc3ccc(C(=O)O)cc3)C(=N)N2C2OC(CO)C(O)C(O)C2O)NC(=O)C(C(O)C2CNC(=N)N2)NC(=O)C(Cc2ccc(OC3OC(CO)C(OC4OC(CO)C(O)C(O)C4O)C(O)C3O)cc2)NC1=O (stereo not shown) [Example 69]: 0

====

Tested on: Staphylococcus sp.
assayComment: in vitro antibacterial evaluation, MIC by broth dilution
Assay type: cell-based
conditionNotes: broth dilution, 18 hours at 35° C.
Please respond with reported MIC Coagulase Negative Staphylococcus (GC 4551) for every item in the list.
# number only, unit µg/mL dropped from output

Exam item: Return reported MIC Coagulase Negative Staphylococcus (GC 4551); argument: CC(c1ccccc1)C1NC(=O)CNC(=O)C(CO)NC(=O)C(C(O)C2CNC(=N)N2C2OC(CO)C(O)C(O)C2O)NC(=O)C(C(O)C2CNC(=N)N2)NC(=O)C(Cc2ccc(OC3OC(CO)C(OC4OC(CO)C(OCC=Cc5ccc(N(C)C)cc5)C(O)C4O)C(O)C3O)cc2)NC1=O (stereo not shown) [Example 243a]
Marked response: 32

Exam item: Return reported MIC Coagulase Negative Staphylococcus (GC 4551); argument: CC(c1ccccc1)C1NC(=O)CNC(=O)C(CO)NC(=O)C(C(O)C2CN(c3ncccn3)C(=N)N2C2OC(CO)C(O)C(O)C2O)NC(=O)C(C(O)C2CNC(=Nc3ncccn3)N2)NC(=O)C(Cc2ccc(OC3OC(CO)C(OC4OC5COC6(OC5C(O)C4O)C4CC5CC(C4)CC6C5)C(O)C3O)cc2)NC1=O (stereo not shown)
Marked response: 16

Exam item: Return reported MIC Coagulase Negative Staphylococcus (GC 4551); argument: CCCCCCCC1OCC2OC(OC3C(CO)OC(Oc4ccc(CC5NC(=O)C(C(C)c6ccccc6)NC(=O)CNC(=O)C(CO)NC(=O)C(C(O)C6CNC(=N)N6C6OC(CO)C(O)C(O)C6O)NC(=O)C(C(O)C6CNC(=N)N6)NC5=O)cc4)C(O)C3O)C(O)C(O)C2O1 (stereo not shown)
Marked response: 1

Exam item: Return reported MIC Coagulase Negative Staphylococcus (GC 4551); argument: CC(c1ccccc1)C1NC(=O)CNC(=O)C(CO)NC(=O)C(C(O)C2CNC(=N)N2C2OC(CO)C(O)C(O)C2O)NC(=O)C(C(O)C2CNC(=N)N2)NC(=O)C(Cc2ccc(OC3OC(COC(=O)C(c4ccccc4)c4ccccc4)C(OC4OC(CO)C(O)C(O)C4O)C(O)C3O)cc2)NC1=O (stereo not shown) [Example 96b]
Marked response: 2

Exam item: Return reported MIC Coagulase Negative Staphylococcus (GC 4551); argument: CC(c1ccccc1)C1NC(=O)CNC(=O)C(CO)NC(=O)C(C(O)C2CNC(=N)N2C2OC(CO)C(O)C(O)C2O)NC(=O)C(C(O)C2CNC(=N)N2)NC(=O)C(Cc2ccc(OC3OC(CO)C(OC4OC(CO)C(O)C(OCc5ccc(OCc6ccccc6)cc5)C4O)C(O)C3O)cc2)NC1=O (stereo not shown) [Example 231c]
Marked response: 1

Exam item: Return reported MIC Coagulase Negative Staphylococcus (GC 4551); argument: CCCC(C)C1OCC2OC(OC3C(CO)OC(Oc4ccc(CC5NC(=O)C(C(C)c6ccccc6)NC(=O)CNC(=O)C(CO)NC(=O)C(C(O)C6CNC(=N)N6C6OC(CO)C(O)C(O)C6O)NC(=O)C(C(O)C6CNC(=N)N6)NC5=O)cc4)C(O)C3O)C(O)C(O)C2O1 (stereo not shown)
Marked response: 1

Exam item: Return reported MIC Coagulase Negative Staphylococcus (GC 4551); argument: Cc1ccc(COCC2OC(OC3C(CO)OC(Oc4ccc(CC5NC(=O)C(C(C)c6ccccc6)NC(=O)CNC(=O)C(CO)NC(=O)C(C(O)C6CNC(=N)N6C6OC(CO)C(O)C(O)C6O)NC(=O)C(C(O)C6CNC(=N)N6)NC5=O)cc4)C(O)C3O)C(O)C(O)C2O)cc1 (stereo not shown)
Marked response: 2
